Consider the following compounds; for each one, report its cell number change.
test: qHTS Assay for Lipid Storage Modulators in Drosophila S3 Cells; conditions: BODIPY lipid droplet fluorescence, 18-24 h, cells fed with added oleic acid; measured here: cell count max response;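 further: cells counted by Cell Tracker Red CMTPX staining in the red channel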
Out of some 320,000 compounds screened, about 2,100 (0.66%) were called active. Inconclusive results (about 53%) are left out. The sample as a whole holds a higher share of actives than the screen did.
Quick note: give the figure in %, leave out the unit.

Tell me cell number change reported for Cc1ccccc1-n1ncc2c1CC(C)(C)CC2NC(=O)c1snnc1C (stereo not drawn) 7.34

Please give the documented cell number change of O=C(CCN1CCCC1=O)NC1CCCc2c1cnn2-c1ccccc1F (stereo not drawn) 11

# return recorded cell number change for entry Cc1cccn2c(CN3CCCC(c4ccccc4)C3)c(C(=O)N3CCOCC3)nc12 (stereo not drawn) -15.3
